Recorded values, source the supplement of paper PMC7125110.

B1: glmS ribozyme (parent)
chain: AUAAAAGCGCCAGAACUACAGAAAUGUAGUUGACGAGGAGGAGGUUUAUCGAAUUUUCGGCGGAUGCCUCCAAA

variants of: B1; assay: self-cleavage kobs at 10000 uM GlcN6P; higher = faster cleavage; RNA array; settings: with glucosamine-6-phosphate
This sample holds only a part of the variants without activity.

var: A14C U31C A39U
units: s⁻¹
qualifier-symbol: =
self-cleavage kobs at 10000 uM GlcN6P: 0.00132
--
var: C10U G37A G44A C70U
units: s⁻¹
qualifier-symbol: <
self-cleavage kobs at 10000 uM GlcN6P: 1e-05
--
var: A14G G37A G63U
units: s⁻¹
qualifier-symbol: <
self-cleavage kobs at 10000 uM GlcN6P: 1e-05
--
var: A39G U47G
units: s⁻¹
qualifier-symbol: =
self-cleavage kobs at 10000 uM GlcN6P: 0.0237
--
var: A42U U55C
units: s⁻¹
qualifier-symbol: =
self-cleavage kobs at 10000 uM GlcN6P: 0.000223
--
var: A14C G63A
units: s⁻¹
qualifier-symbol: <
self-cleavage kobs at 10000 uM GlcN6P: 1e-05
--
var: A36G U46A C58A
units: s⁻¹
qualifier-symbol: <
self-cleavage kobs at 10000 uM GlcN6P: 1e-05
--
var: G29U U46A U54C
units: s⁻¹
qualifier-symbol: =
self-cleavage kobs at 10000 uM GlcN6P: 7.78e-05
--
var: A6C A39G
units: s⁻¹
qualifier-symbol: =
self-cleavage kobs at 10000 uM GlcN6P: 6.11e-05
--
var: G40A U45G
units: s⁻¹
qualifier-symbol: =
self-cleavage kobs at 10000 uM GlcN6P: 0.000145
--
var: A12U G40U U54A
units: s⁻¹
qualifier-symbol: =
self-cleavage kobs at 10000 uM GlcN6P: 0.000861
